# assay.system: HIV Env, isolate 6952.v1.c20 (HIV)
# assay.explanation: cell-based or functional assay
readout.label: IC80 (µg/ml) with constrains (µg/mL)
Provide only the numeric value, understood in µg/mL.

Requested field: IC80 (µg/ml) with constrains. Item: ePGDM13 (antibody, V domains shown) VH: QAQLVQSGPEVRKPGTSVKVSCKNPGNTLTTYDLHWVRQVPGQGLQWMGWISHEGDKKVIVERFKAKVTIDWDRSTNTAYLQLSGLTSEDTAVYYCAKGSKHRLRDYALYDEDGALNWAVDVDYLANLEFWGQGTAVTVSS VL: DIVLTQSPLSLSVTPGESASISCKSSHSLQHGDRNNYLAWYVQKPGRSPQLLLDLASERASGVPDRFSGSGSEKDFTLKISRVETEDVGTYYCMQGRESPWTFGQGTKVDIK 0.318
